B1: HDV Ribozyme (parent)
chain: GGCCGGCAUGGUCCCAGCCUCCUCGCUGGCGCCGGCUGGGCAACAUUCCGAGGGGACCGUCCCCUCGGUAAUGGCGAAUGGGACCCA

variants of: B1; experiment: self-cleavage, relative activity (ratio to wild type); higher = more cleavage; co-transcriptional
Assign self-cleavage to each entry below.

mutation: G29U C48G
self-cleavage: 0.106

mutation: C15U A16U
self-cleavage: 1.26

mutation: G1C C14A
self-cleavage: 0.0811

mutation: U9C G17U
self-cleavage: 0.914

mutation: C33G G40A
self-cleavage: 0.243

Batch lookup, self-cleavage per entry.
1. G25A G52U
2. U20G G28U
3. U60C G76A
4. C14U A70C
5. C24G A87U
6. G54U C75A
7. U12A C61U
8. G52U G81C

0.169
0.0831
1.05
1.02
0.0902
0.241
0.469
0.298
